// data source = patent US11576922B2

molecular target: CD73 (Homo sapiens, UniProt P21589); experiment: Example A1: Biochemical Assay (CD73 inhibition, Malachite Green detection of AMP hydrolysis); conditions: CD73 0.3208 nM, AMP 15 μM, Tris-HCl pH 7.4, Malachite Green, absorbance 620 nm; read-out: Biochemical IC50
Sequence (P21589 27-549): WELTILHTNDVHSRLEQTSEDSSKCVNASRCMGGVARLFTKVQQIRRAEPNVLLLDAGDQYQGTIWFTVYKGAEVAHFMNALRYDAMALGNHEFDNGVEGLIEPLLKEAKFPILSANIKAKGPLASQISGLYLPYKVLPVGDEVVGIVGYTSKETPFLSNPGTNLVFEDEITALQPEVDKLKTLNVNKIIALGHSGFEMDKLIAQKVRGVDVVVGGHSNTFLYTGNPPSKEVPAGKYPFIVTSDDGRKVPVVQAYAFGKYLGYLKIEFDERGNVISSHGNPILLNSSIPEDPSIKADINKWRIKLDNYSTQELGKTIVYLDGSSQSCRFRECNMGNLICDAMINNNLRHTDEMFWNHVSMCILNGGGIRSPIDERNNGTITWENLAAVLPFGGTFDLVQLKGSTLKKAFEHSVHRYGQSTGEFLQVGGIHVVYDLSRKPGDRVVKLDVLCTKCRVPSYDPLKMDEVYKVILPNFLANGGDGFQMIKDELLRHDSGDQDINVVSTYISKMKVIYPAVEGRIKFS
I'd be grateful if you could share measured IC50 for these entries.

The recorded IC50 for `O=P(O)(O)CP(=O)(O)OC[C@H]1O[C@@H](n2nnc3c(NCc4ccc(Cl)cc4)nc(Cl)nc32)[C@H](O)[C@@H]1O` is < 100 nM

The recorded IC50 for `Nc1nc(Cl)nc2c1nnn2[C@@H]1O[C@H](COP(=O)(O)CP(=O)(O)O)[C@@H](O)[C@H]1O` is > 1000 nM

The recorded IC50 for `CO[P@](=O)(CP(=O)(O)O)OC[C@H]1O[C@@H](n2nnc3c(NCc4ccccc4Cl)nc(Cl)nc32)[C@H](O)[C@@H]1O` is 100 to 1000 nM

The recorded IC50 for `O=P(O)(O)CP(=O)(O)OC[C@H]1O[C@@H](n2nnc3c(N[C@H]4CCc5ccccc54)nc(Cl)nc32)[C@H](O)[C@@H]1O` is < 100 nM

The recorded IC50 for O=P(O)(O)CP(=O)(O)OC[C@H]1OC(n2nnc3c(NC4CCc5ccccc54)nc(Cl)nc32)[C@H](O)[C@@H]1O (stereo in doubt) is < 100 nM

The recorded IC50 for `O=P(O)(O)CP(=O)(O)OC[C@H]1O[C@@H](n2nnc3c(N4CCCC[C@H]4c4ccccc4)nc(Cl)nc32)[C@H](O)[C@@H]1O` is < 100 nM

The recorded IC50 for `O=P(O)(O)CP(=O)(O)OC[C@H]1O[C@@H](n2nnc3c(NCc4cccc(Cl)c4)nc(Cl)nc32)[C@H](O)[C@@H]1O` is < 100 nM

The recorded IC50 for `O=P(O)(O)CP(=O)(O)OC[C@H]1O[C@@H](n2nnc3c(NCc4ccccc4Cl)nc(Cl)nc32)[C@H](O)[C@@H]1O` is < 100 nM

The recorded IC50 for `O=P(O)(O)CP(=O)(O)OC[C@H]1O[C@@H](n2nnc3c(NCc4ccccc4)nc(Cl)nc32)[C@H](O)[C@@H]1O` is 100 to 1000 nM

The recorded IC50 for CCOP(=O)(CP(=O)(O)O)OC[C@H]1O[C@@H](n2nnc3c(NCc4ccccc4Cl)nc(Cl)nc32)[C@H](O)[C@@H]1O (stereo partly shown) is 100 to 1000 nM

The recorded IC50 for `C[C@H](Nc1nc(Cl)nc2c1nnn2[C@@H]1O[C@H](COP(=O)(O)CP(=O)(O)O)[C@@H](O)[C@H]1O)c1ccccc1Cl` is < 100 nM

The recorded IC50 for `O=P(O)(O)CP(=O)(O)OC[C@@H]1C[C@@H](O)[C@H](n2ncc3c(NCc4ccccc4Cl)nc(Cl)nc32)O1` is < 100 nM

The recorded IC50 for CN(c1nc(Cl)nc2c1cnn2[C@@H]1O[C@H](COP(=O)(O)CP(=O)(O)O)[C@@H](O)[C@H]1O)[C@@H]1CCc2ccccc21 [Example 50] is < 100 nM
